Ref: PubChem BioAssay AID1159580

Assignment: determine reported normalized growth for the given compounds.
Test: chemical genetic growth profiling, strain panel (AID 1159580);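 note: tested at 20 µM; growth read once vehicle control cultures reached saturation at 30 °C; 1 = growth at the plate median or of vehicle wells; lower values mean less growth of the strain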
Conditions: S. cerevisiae deletion strains, growth OD, locus YBL061C, strain skt5, stronger effect = lower value
Among all 5,500 compounds or so, about 2,000 (36%) were called active. Another 18% or so got no clear call; they are omitted. Some of the results follow.
One number for each entry.

Worked cases, normalized growth given:
C=C1C(C2(C)C=CC(=O)C(C)(C)C2CC(=O)OC)CC[C@@]2(C)[C@H](c3ccoc3)OC(=O)C3OC132 (some centres undefined)    0.988
CCCCC[C@H](CC(=O)NO)C(=O)N[C@H](C(=O)N1CCC[C@H]1CO)C(C)C    1.01
C=C1[C@H]2CC[C@@]3(C)[C@H](c4ccoc4)OC(=O)C[C@]13O[C@H]1C[C@H](O)C(C)(C)[C@H](CC(=O)OC)[C@]12C    1.02

Let's switch to this compound now.
-- ask Note normalized growth for the compound shown: C=C1C2CC[C@@]3(C)[C@H](c4ccoc4)OC(=O)C[C@]13O[C@H]1CC(O)C(C)(C)C(CC(=O)OC)[C@@]21C (some centres undefined)
-- reply 0.984

====

Assay: chemical genetic growth profiling, strain panel (AID 1159580);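 note: tested at 20 µM; growth read once vehicle control cultures reached saturation at 30 °C; 1 = growth at the plate median or of vehicle wells; lower values mean less growth of the strain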
Details: S. cerevisiae deletion strains, growth OD, locus YLR058C, strain SHM2 (second series), stronger effect = lower value
About 2,000 (36%) of roughly 5,500 compounds were called active. Another 18% or so got no clear call; they are omitted. Some of the results follow.
Assignment: determine reported normalized growth for the given compounds.
One number for each entry.

Worked cases, normalized growth given:
Cc1ccc2c(c1)N(CCO)C(C)(C)CC2C (centres undefined)    0.988
Cc1cscc1S(=O)(=O)c1ccc(Cl)cc1    0.975
COc1ccc2c(c1)CCCN2C(=O)NC(=O)c1c(F)cccc1Cl    0.975
COc1cc(CC/C(C)=N/O)ccc1OCc1ccc(Cl)cc1Cl    0.976
Cc1c(S(=O)(=O)c2ccc(Cl)cc2)csc1S(=O)(=O)N/N=C\c1c(Cl)cccc1Cl    1.01

Report normalized growth for every entry below.
1. C/C(=N/Nc1c(Cl)cc(Cl)cc1Cl)c1cc(F)ccc1OC(=O)c1ccccc1F
2. COc1ccc(N=Cc2ccccc2O)cc1

-- reply
[1.01, 0.988]

Report normalized growth for every entry below.
1. O=C1CSC(c2ccc(Cl)c(Cl)c2)N1c1ccc(F)cc1 (centres undefined)
2. Cc1cc(NS(=O)(=O)c2ccc(NS(=O)(=O)c3ccc(Cl)cc3)cc2)no1
3. Cc1c(S(=O)(=O)c2ccc(Cl)cc2)csc1C(=O)Nc1ccc(N2CCOCC2)c(Cl)c1
4. NNC(=O)c1ccccc1O
5. O=C(Nc1ccccc1)NC1CCCC1
6. O=S(=O)(Nc1ccc(Oc2ccc(Cl)cc2)cc1)c1ccccc1
7. N#Cc1csc([N+](=O)[O-])c1

-- reply
1. 1
2. 1
3. 0.989
4. 1
5. 0.997
6. 0.998
7. 0.951

Report normalized growth for every entry below.
1. OC1(c2ccc(Cl)cc2)CSc2nc3cc(C(F)(F)F)ccc3n21 (centres undefined)
2. Cn1nccc1NS(=O)(=O)c1cccc(Cl)c1
3. O=C(Nc1nccs1)c1ccc([N+](=O)[O-])cc1
4. O=C(NCc1nc(-c2ccc(C(F)(F)F)cc2)no1)Nc1ccc(F)cc1F
5. Cc1nn(Cc2n[nH]c(=S)o2)c(C)c1Br

-- reply
1: 1.02; 2: 1.04; 3: 0.981; 4: 1.01; 5: 0.996

Report normalized growth for every entry below.
1. COc1ccc(CNc2ccccc2-c2nc3ccccc3[nH]2)cc1
2. CC(=O)Nc1ccc(S(=O)(=O)NC2Cc3ccccc3C2)cc1
3. O=C(O)CC(CC(=O)Nc1ccc(I)cc1F)c1ccc(C(F)(F)F)cc1 (centres undefined)
4. FC(F)(F)c1cc(-n2c(CCc3nc(-c4ccc(Cl)cc4)no3)n[nH]c2=S)cc(C(F)(F)F)c1
5. COc1ccc(CCNC(=S)NCCc2ccc(OC)c(OC)c2)cc1OC

-- reply
1. 0.956
2. 1.01
3. 0.975
4. 1.01
5. 1
